assay-overview: qHTS assay to identify small molecule antagonists of the estrogen related receptor signaling pathway with the pleiotropic PPARgamma coactivator (PGC) from Tox21 10K library - cell viability counter screen (AID 1224840); further: nearly all actives have a fitted effect of over 40% in size
test-conditions: PGC/ERR reporter cells viability, CellTiter-Fluor, 17.5 h; series mostly up to 92.4 µM
Inconclusive results are not listed. Activity calls are given as the source filed them. The call rests on the fitted dose curve; in most records, active means well fitted cell-killing curve with a large enough effect in the repeat runs (not every such curve was filed as active); inconclusive means weak or mixed curves, or effect the other way; inactive means no such curve, though single readings can be large or run the other way.
Pick one and only one: active, inactive

Ask | Could you please tell me the result logged for CCCCCCCCCCCCCCCCCC(=O)OCC(CC)CCCC (configuration not stated) in this assay?
Reply | inactive

====

test-target: Cytochrome P450 2C9 (Homo sapiens) (UniProt P11712)
Sequence (P11712 whole entry, looked up): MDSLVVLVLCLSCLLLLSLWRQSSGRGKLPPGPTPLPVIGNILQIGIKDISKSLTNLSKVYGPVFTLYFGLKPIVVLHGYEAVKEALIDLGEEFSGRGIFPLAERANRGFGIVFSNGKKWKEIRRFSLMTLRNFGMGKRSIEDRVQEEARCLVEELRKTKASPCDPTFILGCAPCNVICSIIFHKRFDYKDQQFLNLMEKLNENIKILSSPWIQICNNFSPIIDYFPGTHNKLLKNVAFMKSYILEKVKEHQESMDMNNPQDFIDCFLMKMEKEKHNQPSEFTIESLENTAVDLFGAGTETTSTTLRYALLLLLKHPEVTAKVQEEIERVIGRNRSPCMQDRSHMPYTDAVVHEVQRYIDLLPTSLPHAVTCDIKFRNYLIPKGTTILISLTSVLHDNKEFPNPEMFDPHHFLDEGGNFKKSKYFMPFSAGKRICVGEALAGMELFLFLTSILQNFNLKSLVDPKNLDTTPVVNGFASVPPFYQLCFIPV
assay-overview: Cytochrome P450 Family 2 Subfamily C Member 9 (CYP2C9) small molecule antagonists: luciferase reporter qHTS assay (AID 1671198); further: nearly all actives have a fitted effect of over 50% in size
test-conditions: P450-Glo CYP2C9 enzyme assay, luciferin luminescence; series mostly up to 115 µM
Records with an inconclusive call do not appear. Active and inactive are the calls of the source. Calls follow the shape of the dose curve; as a rule, active = well fitted inhibition curve with a large enough effect in the repeat runs; inconclusive = weak or mixed curves; inactive = no such curve, though single readings can be large or run the other way.
Pick one and only one: active, inactive

[[record]]
molecule = "CC/C=C\\C/C=C\\C/C=C\\CCCCCCCC(=O)OCC"
answer_label = "active"

[[record]]
molecule = "COc1ccc(C(=O)NCc2ccc(OCCN(C)C)cc2)cc1OC"
answer_label = "inactive"

[[record]]
molecule = "CC1C(C)(C)C2=C(C(=O)CCC2)C1(C)C (centres undefined)"
answer_label = "inactive"


Ask | Could you please tell me the result logged for O=C1OC[C@H](Cc2cccc(O)c2)[C@H]1Cc1cccc(O)c1 in this assay?
Reply | active
